# testTarget: UniProtKB Q96EB6
# Sequence (Q96EB6 whole entry): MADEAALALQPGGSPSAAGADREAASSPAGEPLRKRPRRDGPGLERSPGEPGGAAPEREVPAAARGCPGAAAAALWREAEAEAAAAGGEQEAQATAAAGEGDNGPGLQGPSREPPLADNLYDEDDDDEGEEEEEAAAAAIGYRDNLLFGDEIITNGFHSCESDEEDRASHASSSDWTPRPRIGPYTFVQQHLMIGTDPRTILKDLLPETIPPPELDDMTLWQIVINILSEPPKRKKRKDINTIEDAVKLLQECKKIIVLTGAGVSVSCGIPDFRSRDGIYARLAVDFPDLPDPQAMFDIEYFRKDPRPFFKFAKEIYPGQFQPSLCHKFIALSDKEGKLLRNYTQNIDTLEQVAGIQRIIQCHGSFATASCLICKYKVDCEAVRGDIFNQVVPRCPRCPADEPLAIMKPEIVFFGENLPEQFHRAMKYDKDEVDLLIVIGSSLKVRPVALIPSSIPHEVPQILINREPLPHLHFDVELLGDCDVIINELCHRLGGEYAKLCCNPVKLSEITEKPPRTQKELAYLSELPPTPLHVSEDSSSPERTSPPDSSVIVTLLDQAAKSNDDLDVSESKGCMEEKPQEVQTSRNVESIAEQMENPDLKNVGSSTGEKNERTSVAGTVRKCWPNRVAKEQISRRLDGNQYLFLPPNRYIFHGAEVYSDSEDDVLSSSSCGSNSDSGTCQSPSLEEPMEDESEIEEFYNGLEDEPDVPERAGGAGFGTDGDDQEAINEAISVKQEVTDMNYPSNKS
# protocolSummary: mass spectrometry based SIRT1 deacetylation assay (activation)
# Type: biochemical
# experimentalSetup: 0.5 μM peptide substrate, 120 μM βNAD+, 10 nM SIRT1, 25 min at 25° C.; NA = not active in the assay
reportedProperty: EC1.5 (concentration of test compound that results in 150% activation of SIRT1)

{"inputSmiles": "O=C(Nc1ccccc1-c1nc2cc(CN3CCCC3)cnc2s1)c1ccn(-c2ccccc2)n1", "measuredValue": "428 NM"}
{"inputSmiles": "O=C(Nc1ccccc1-c1nc2cc(CN3CC[C@@H](F)C3)cnc2s1)c1cccc(-c2cccc(F)c2)n1", "measuredValue": "110 NM"}

stdin: # return recorded EC1.5 (concentration of test compound that results in 150% activation of SIRT1) for input "O=C(Nc1ccccc1-c1nc2cc(CN3CCOCC3)cnc2s1)c1cccc(-c2ncccn2)c1"
stdout: 548 NM

stdin: # return recorded EC1.5 (concentration of test compound that results in 150% activation of SIRT1) for input "COCCN1CCN(Cc2cnc3sc(-c4ccccc4NC(=O)c4cccc(-c5ccccc5F)n4)nc3c2)CC1"
stdout: 69 NM

stdin: # return recorded EC1.5 (concentration of test compound that results in 150% activation of SIRT1) for input "NC1CCN(Cc2cnc3sc(-c4ccccc4NC(=O)c4ccc5ccccc5n4)nc3c2)CC1"
stdout: 620 NM

stdin: # return recorded EC1.5 (concentration of test compound that results in 150% activation of SIRT1) for input "O=C(Nc1ccccc1-c1nc2cc(CNC3CCNCC3)cnc2s1)c1ccc2ccccc2n1"
stdout: 270 NM

stdin: # return recorded EC1.5 (concentration of test compound that results in 150% activation of SIRT1) for input "O=C(Nc1ccccc1-c1nc2cc(CN3CCOCC3)cnc2s1)c1cncc(-c2cccc(F)c2)c1"
stdout: 1640 NM

stdin: # return recorded EC1.5 (concentration of test compound that results in 150% activation of SIRT1) for input "O=C1CN(Cc2cnc3sc(-c4ccccc4NC(=O)c4ccc5ccccc5n4)nc3c2)CCN1"
stdout: 230 NM
